- TARGET_UNDER_TEST: BRD protein (Homo sapiens)
- Construct: endogenous in cells; host or cells: MV-4-11
- MEASUREMENT_DESCRIPTION: Reduction of bromodomain protein (BRD) expression levels in MV-4-11 cells (Western blot, DC50 and Dmax)
- Format: cell-based
- CONDITION_NOTES: 24 hours of treatment, 0.1, 1, 10 and 20 µM, BRD4 Western blot, GAPDH internal reference
The reader will find reported DC50 values listed item by item below.

[[record]]
molecule = "COc1nnc(C2CCC(=O)NC2=O)cc1N1CCN(C(=O)COCCNC(=O)C[C@@H]2N=C(c3ccc(Cl)cc3)c3c(sc(C)c3C)-n3c(C)nnc32)CC1 (stereo partly shown) [PRTB-16]"
target_under_test = "BRD protein (Homo sapiens)"
observed = "> 10 µM"

[[record]]
molecule = "Cc1sc2c(c1C)C(c1ccc(Cl)cc1)=N[C@@H](CC(=O)NCCOCC(=O)N1CCN(c3nnc(C4CCC(=O)NC4=O)c4c3CCCC4)CC1)c1nnc(C)n1-2 (stereo partly shown) [PRTB-10]"
target_under_test = "BRD protein (Homo sapiens)"
observed = "> 10 µM"

[[record]]
molecule = "Cc1cc(N2CCN(C(=O)COCCNC(=O)C[C@@H]3N=C(c4ccc(Cl)cc4)c4c(sc(C)c4C)-n4c(C)nnc43)CC2)nnc1C1CCC(=O)NC1=O (stereo partly shown) [PRTB-09]"
target_under_test = "BRD protein (Homo sapiens)"
observed = "1 to 10 µM"


Proceed to the following item.
INPUT: Record request: DC50 value, item Cc1sc2c(c1C)C(c1ccc(Cl)cc1)=N[C@@H](CC(=O)NCCCn1ccc(C#Cc3ccc(C4CCC(=O)NC4=O)nn3)n1)c1nnc(C)n1-2 (stereo partly shown) [PRTB-14]
OUTPUT: < 1 µM
